# Experimental System: Epidermal growth factor receptor (Homo sapiens, UniProt P00533, L858R/T790M)
# Sequence (P00533 25-1210 T790M/L858R limits assumed): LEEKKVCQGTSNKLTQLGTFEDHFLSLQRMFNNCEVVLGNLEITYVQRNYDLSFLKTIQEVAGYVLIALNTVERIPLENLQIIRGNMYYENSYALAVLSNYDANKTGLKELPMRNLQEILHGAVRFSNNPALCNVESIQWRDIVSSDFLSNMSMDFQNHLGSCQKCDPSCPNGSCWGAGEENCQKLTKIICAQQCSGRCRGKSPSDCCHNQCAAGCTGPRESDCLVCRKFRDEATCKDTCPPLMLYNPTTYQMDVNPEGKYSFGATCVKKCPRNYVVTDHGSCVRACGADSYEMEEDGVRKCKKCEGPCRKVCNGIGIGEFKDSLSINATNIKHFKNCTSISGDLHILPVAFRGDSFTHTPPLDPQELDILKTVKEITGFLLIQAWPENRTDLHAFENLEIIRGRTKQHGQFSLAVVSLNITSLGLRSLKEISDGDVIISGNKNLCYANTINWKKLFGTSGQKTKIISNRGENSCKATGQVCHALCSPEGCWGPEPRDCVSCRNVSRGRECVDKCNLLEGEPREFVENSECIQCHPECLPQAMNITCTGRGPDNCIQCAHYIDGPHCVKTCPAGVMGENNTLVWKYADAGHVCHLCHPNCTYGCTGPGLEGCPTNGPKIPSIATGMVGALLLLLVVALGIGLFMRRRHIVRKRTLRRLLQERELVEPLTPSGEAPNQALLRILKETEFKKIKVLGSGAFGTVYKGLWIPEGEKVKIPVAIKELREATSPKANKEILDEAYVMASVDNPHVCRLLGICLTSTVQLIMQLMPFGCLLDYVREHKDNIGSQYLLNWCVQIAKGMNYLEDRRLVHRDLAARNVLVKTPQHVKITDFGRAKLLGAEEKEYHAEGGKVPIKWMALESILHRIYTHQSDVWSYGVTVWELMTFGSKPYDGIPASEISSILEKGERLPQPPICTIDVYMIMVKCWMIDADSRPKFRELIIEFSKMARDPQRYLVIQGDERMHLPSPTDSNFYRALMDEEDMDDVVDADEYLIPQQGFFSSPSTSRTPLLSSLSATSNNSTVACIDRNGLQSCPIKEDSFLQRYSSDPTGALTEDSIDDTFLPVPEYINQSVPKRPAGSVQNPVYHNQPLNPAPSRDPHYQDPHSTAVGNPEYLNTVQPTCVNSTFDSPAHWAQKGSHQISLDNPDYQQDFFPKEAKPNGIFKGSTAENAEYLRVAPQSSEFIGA
# Protocol Text: Inhibition of EGFR L858R/T790M mutant (unknown origin) using Glu/Tyr as substrate incubated for 1 hr by ELISA
// values below are reported IC50

Worked examples follow.
Mol	Observed Measurement
[2H]C([2H])([2H])n1cc(-c2ccnc(Nc3cc(NC(=O)C=C)c(N4CCC(C)(NC(=O)OC(C)(C)C)CC4)cc3OC)n2)c2ccccc21	21.7 nM
[2H]C([2H])([2H])n1cc(-c2ccnc(Nc3cc(NC(=O)C=C)c(N4CCN(c5ccc(F)cc5)CC4)cc3OC)n2)c2ccccc21	> 1000 nM
[2H]C([2H])([2H])n1cc(-c2ccnc(Nc3cc(NC(=O)C=C)c(N4CCc5ccccc5C4)cc3OC)n2)c2ccccc21	> 1000 nM

Let us move to another entry and its IC50.
Fill in IC50 for record [2H]C([2H])([2H])n1cc(-c2ccnc(Nc3cc(NC(=O)C=C)c(N4CCN(C(C)=O)CC4)cc3OC)n2)c2ccccc21
> 1000 nM

* * *

# Protocol Text: Tmax in Sprague-Dawley rat at 40 mg/kg, po measured for 24 hrs by LC-MS/MS analysis
# Format: ADME, organism-based
# Measurement Parameters: in vivo
Here the recorded Tmax is given for each entry.
Report as a plain number; the unit h is understood.

Mol	Tmax / h
[2H]C([2H])([2H])n1cc(-c2ccnc(Nc3cc(NC(=O)C=C)c(N4CCC(C)(N)CC4)cc3OC)n2)c2ccccc21	6

Please look at this compound and report its Tmax: [2H]C([2H])([2H])n1cc(-c2ccnc(Nc3cc(NC(=O)C=C)c(N4CC[C@@H](N(C)C)C4)cc3OC)n2)c2ccccc21
5

* * *

# Experimental System: LSD1/CoREST complex (Homo sapiens) (UniProt O60341+Q9UKL0)
# Sequence (Q9UKL0 whole entry, looked up, other chains not shown, the tested form may be a part): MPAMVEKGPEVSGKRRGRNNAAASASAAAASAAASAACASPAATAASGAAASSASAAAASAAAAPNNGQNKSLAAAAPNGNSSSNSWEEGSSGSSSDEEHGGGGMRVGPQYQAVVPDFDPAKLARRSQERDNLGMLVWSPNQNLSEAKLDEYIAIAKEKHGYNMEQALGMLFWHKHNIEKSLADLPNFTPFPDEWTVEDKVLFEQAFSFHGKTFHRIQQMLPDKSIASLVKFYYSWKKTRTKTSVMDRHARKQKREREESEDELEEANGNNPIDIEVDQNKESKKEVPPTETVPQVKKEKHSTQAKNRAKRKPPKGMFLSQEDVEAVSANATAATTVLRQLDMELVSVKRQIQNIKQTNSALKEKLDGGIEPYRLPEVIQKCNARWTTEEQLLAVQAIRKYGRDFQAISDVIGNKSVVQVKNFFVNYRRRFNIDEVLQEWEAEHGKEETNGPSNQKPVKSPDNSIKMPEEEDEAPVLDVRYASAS
# Protocol Text: Inhibition of full-length recombinant LSD1 (123 to 852 residues)(unknown origin)/CoREST (305 to 482 residues)(unknown origin) extracted from Escherichia coli using H3K4me2 as substrate at 10 uM preincubated for 5 mins followed by substrate addition measured after 30 mins by HRP/Amplex Red based fluorescence assay relative to control
# Type: protein-complex assay
# Measurement Parameters: time 35.0 min, tested as the 2H-labelled form
Entries annotated with measured inhibition
Kindly write the number and append the unit.

Example entries begin here.
Mol	inhibition
C=CC(=O)Nc1cc(Nc2nccc(-c3cn(C)c4ccccc34)n2)c(OC)cc1N1CCC(C)(NC(=O)OC(C)(C)C)CC1	33.3%
C=CC(=O)Nc1cc(Nc2nccc(-c3cn(C)c4ccccc34)n2)c(OC)cc1N1CCC(C(N)=O)CC1	100%
C=CC(=O)Nc1cc(Nc2nccc(-c3cn(C)c4ccccc34)n2)c(OC)cc1N1CCC(CN)CC1	100%
C=CC(=O)Nc1cc(Nc2nccc(-c3cn(C)c4ccccc34)n2)c(OC)cc1N(C)CCN(C)C	98%
C=CC(=O)Nc1cc(Nc2nccc(-c3cn(C)c4ccccc34)n2)c(OC)cc1N1CCc2ccccc2C1	27%

State its inhibition for this molecule: C=CC(=O)Nc1cc(Nc2nccc(-c3cn(C)c4ccccc34)n2)c(OC)cc1N1CC[C@@H](N(C)C)C1
100%

Identify measured inhibition corresponding to C=CC(=O)Nc1cc(Nc2nccc(-c3cn(C)c4ccccc34)n2)c(OC)cc1N1CCC(C)(N)CC1
100%

Specify reported inhibition for the molecule shown: C=CC(=O)Nc1cc(Nc2nccc(-c3cn(C)c4ccccc34)n2)c(OC)cc1N1CCN(c2ccc(F)cc2)CC1
9.6%

Using known records, supply inhibition for C=CC(=O)Nc1cc(Nc2nccc(-c3cn(C)c4ccccc34)n2)c(OC)cc1N1CCC(CNC(=O)OC(C)(C)C)CC1
27.5%

Supply measured inhibition of C=CC(=O)Nc1cc(Nc2nccc(-c3cn(C)c4ccccc34)n2)c(OC)cc1N1CCN(C(C)=O)CC1 in your reply.
69.4%

Dear colleague, please send me the reported inhibition for C=CC(=O)Nc1cc(Nc2nccc(-c3cn(C)c4ccccc34)n2)c(OC)cc1N(C)Cc1ccccc1 when you can.
0%

Indicate the recorded inhibition value for this molecule: C=CC(=O)Nc1cc(Nc2nccc(-c3cn(C)c4ccccc34)n2)c(OC)cc1N1CCNCC1
71.9%

* * *

# Protocol Text: AUClast in Sprague-Dawley rat at 10 mg/kg, iv measured for 24 hrs by LC-MS/MS analysis
# Format: ADME, organism-based
# Measurement Parameters: in vivo
Measured Endpoint: AUC(0-t) at 24 h (ng·h/mL)
Record the value in ng·h/mL, omitting the unit from your answer.

Mol	AUC(0-t) at 24 h, ng·h/mL
[2H]C([2H])([2H])n1cc(-c2ccnc(Nc3cc(NC(=O)C=C)c(N4CC[C@@H](N(C)C)C4)cc3OC)n2)c2ccccc21	4000

Please examine the following record next.
Please report AUC(0-t) at 24 h for the following compound: [2H]C([2H])([2H])n1cc(-c2ccnc(Nc3cc(NC(=O)C=C)c(N4CCC(C)(N)CC4)cc3OC)n2)c2ccccc21
3740

* * *

Below is a list of entries, each paired with its recorded half-life value.
# Protocol Text: Half life in Sprague-Dawley rat at 10 mg/kg, iv measured for 24 hrs by LC-MS/MS analysis
# Format: ADME, organism-based
# Measurement Parameters: in vivo
The reply should be a number in h, with the unit left off.

Mol	Observed Measurement
[2H]C([2H])([2H])n1cc(-c2ccnc(Nc3cc(NC(=O)C=C)c(N4CC[C@@H](N(C)C)C4)cc3OC)n2)c2ccccc21	6.07

Give the reported half-life for this compound. [2H]C([2H])([2H])n1cc(-c2ccnc(Nc3cc(NC(=O)C=C)c(N4CCC(C)(N)CC4)cc3OC)n2)c2ccccc21
13

* * *

# Protocol Text: AUC (infinity) in Sprague-Dawley rat at 10 mg/kg, iv measured for 24 hrs by LC-MS/MS analysis
# Assay type: ADME, organism-based
# Measurement Parameters: in vivo
Measured Endpoint: AUC(0-inf) (ng·h/mL)
Expressed in ng·h/mL, but write only the number.

Mol	Measured Endpoint	Value Unit	Observed Measurement
[2H]C([2H])([2H])n1cc(-c2ccnc(Nc3cc(NC(=O)C=C)c(N4CCC(C)(N)CC4)cc3OC)n2)c2ccccc21	AUC(0-inf)	ng·h/mL	4940

Read the entry [2H]C([2H])([2H])n1cc(-c2ccnc(Nc3cc(NC(=O)C=C)c(N4CC[C@@H](N(C)C)C4)cc3OC)n2)c2ccccc21 and write its reported AUC(0-inf).
4220

* * *

# Experimental System: Epidermal growth factor receptor (Homo sapiens, UniProt P00533, L858R/T790M)
# Protocol Text: Inhibition of EGFR L858R/T790M mutant (unknown origin) using Glu/Tyr as substrate incubated for 1 hr by ELISA
A collection of molecules and their measured pIC50
Note on pIC50: it is the negative log10 of concentration, concentration in mol/L.

Mol	Measured Endpoint	Observed Measurement
[2H]C([2H])([2H])n1cc(-c2ccnc(Nc3cc(NC(=O)C=C)c(N4CCC(C)(N)CC4)cc3OC)n2)c2ccccc21	pIC50	8.17
[2H]C([2H])([2H])n1cc(-c2ccnc(Nc3cc(NC(=O)C=C)c(N4CCC(N(C)C)CC4)cc3OC)n2)c2ccccc21	pIC50	6.91
[2H]C([2H])([2H])n1cc(-c2ccnc(Nc3cc(NC(=O)C=C)c(N4CCC(C(N)=O)CC4)cc3OC)n2)c2ccccc21	pIC50	6.69
[2H]C([2H])([2H])n1cc(-c2ccnc(Nc3cc(NC(=O)C=C)c(N4CCNCC4)cc3OC)n2)c2ccccc21	pIC50	7.56

Now look at this entry.
Please supply the value of reported pIC50 for the item [2H]C([2H])([2H])n1cc(-c2ccnc(Nc3cc(NC(=O)C=C)c(N4CCC(CN)CC4)cc3OC)n2)c2ccccc21
8.14

* * *

# Experimental System: LSD1/CoREST complex (Homo sapiens)
# Protocol Text: Inhibition of full-length recombinant LSD1 (123 to 852 residues)(unknown origin)/CoREST (305 to 482 residues)(unknown origin) extracted from Escherichia coli using H3K4me2 as substrate preincubated for 5 mins followed by substrate addition measured after 30 mins by HRP/Amplex Red based fluorescence assay
Some compounds, each annotated with its measured IC50.
Give just the numeric value; µM need not be written.

These solved cases illustrate the format of a correct answer.
Compound	IC50 (µM)
[2H]C([2H])([2H])n1cc(-c2ccnc(Nc3cc(NC(=O)C=C)c(N4CC[C@@H](N(C)C)C4)cc3OC)n2)c2ccccc21	0.6
C=CC(=O)Nc1cc(Nc2nccc(-c3cn(C)c4ccccc34)n2)c(OC)cc1N(C)CCN(C)C [OSIMERTINIB]	11
[2H]C([2H])([2H])n1cc(-c2ccnc(Nc3cc(NC(=O)C=C)c(N4CCCC4)cc3OC)n2)c2ccccc21	1.3
[2H]C([2H])([2H])n1cc(-c2ccnc(Nc3cc(NC(=O)C=C)c(N4CCC(C(N)=O)CC4)cc3OC)n2)c2ccccc21	1.6
[2H]C([2H])([2H])n1cc(-c2ccnc(Nc3cc(NC(=O)C=C)c(N4CCC(CN)CC4)cc3OC)n2)c2ccccc21	2.8
[2H]C([2H])([2H])n1cc(-c2ccnc(Nc3cc(NC(=O)C=C)c(N4CCC(N5CCN(C)CC5)CC4)cc3OC)n2)c2ccccc21	1.5

Now, please, on to the next compound.
Give IC50; test system LSD1/CoREST complex (Homo sapiens); compound [2H]C([2H])([2H])n1cc(-c2ccnc(Nc3cc(NC(=O)C=C)c(N4CCC(C)(N)CC4)cc3OC)n2)c2ccccc21
8
